- targetOrTestSystem: HLA-A*0201 (human)
- experimentDescription: competition with 125I-labelled standard peptide for purified HLA, gel filtration
- conditionsUsed: scale: ratio
Field: binding affinity ratio. Provide a value for each of the binders that follow.
Answers are plain numbers.

Dear reader, for each entry below, please note its binding affinity ratio.
1. LLEKMGGSA (modifications not checked) [… (PSM, position 305, 9 amino acids)]
2. SLVHNLTKEL (modifications not checked) [PSM peptide … (position 472, 10 amino acids)]
3. SVILLGRHSL (modifications not checked) [PSA peptide … (position 67, 10 amino acids)]

[0.0001, 0.0002, 0.0001]

Param item = LLRLSEPA (modifications not checked) [LLRLSEPA (PSA, position 119, 8 amino acids)] ; retrieve measured binding affinity ratio.
0.0001
